Assay: PubChem AID 1554
Details: BJeLR (HRASV12) viability, CellTiter-Glo ATP luminescence, 48 h; stronger effect = higher value; concentration not given here
Among all 300,000 compounds or so, about 520 (0.17%) were called active. For the sample, actives were picked, then their nearest neighbours and some compounds at random.
valueType: inhibition (%)
Give the value, in units of %, as a plain number.

(Q) Determine its reported inhibition: Cc1ccc(Oc2nc(-c3ccccn3)nc3ccccc23)cc1
(A) 4.2

(Q) Determine its reported inhibition: Cc1ccc(-c2nn(-c3ccccc3)cc2/C=N/NC(=O)c2ccc3c(c2)OCO3)cc1
(A) 11.4

(Q) Determine its reported inhibition: O=C(NNC(=O)c1ccccc1[N+](=O)[O-])Nc1ccccc1C(F)(F)F
(A) 1.35

(Q) Determine its reported inhibition: CC(C)n1c(-c2ccncc2)n[nH]c1=S
(A) -1.2

(Q) Determine its reported inhibition: COc1ccccc1N(C(=O)Cn1nnc2ccccc21)C(C(=O)NCc1ccco1)c1ccc(C)o1 (stereo unspecified)
(A) -3.41

(Q) Determine its reported inhibition: CSc1n[nH]c(=S)n1N
(A) 6.98

(Q) Determine its reported inhibition: CCOc1ccc(C(CC(=O)O)NC(=O)C23CC4CC(CC(C4)C2)C3)cc1OC (stereo unspecified)
(A) 8.09

(Q) Determine its reported inhibition: CCCOc1ccccc1C1CC(=O)Nc2cc3c(cc21)OCO3 (stereo unspecified)
(A) 21.8

(Q) Determine its reported inhibition: COc1ccccc1C1C2=C(COC2=O)Nc2cc3c(cc21)OCO3 (stereo unspecified)
(A) 71.8

(Q) Determine its reported inhibition: C=CCn1c(SCC(=O)c2ccc(Br)cc2)nnc1C(C)NC(=O)Cc1ccc(OC)cc1 (stereo unspecified)
(A) 2.52

(Q) Determine its reported inhibition: O=C(Oc1ccc(Br)cc1)c1cccnc1
(A) -11.9
